Test system: HaCaT
Test Description: Antiproliferative activity against human HaCaT cells assessed as DNA synthesis level after 24 hrs by thymidine incorporation assay
Assay type: functional, cell-based
Consider the following compounds and their measured IC50 readings.
A number alone suffices; assume pM.

Sample records with IC50:
line_notation=CC(/C=C/C(C)=C/[C@@H]1Cc2nc(cs2)[C@@H](C)C[C@@H](NC(=O)c2ccccc2)CC(=O)O[C@@H](C)C/C(C)=C/C=C\C(=O)O1)=C\CN(C)C result_value=3400
line_notation=CC(/C=C/C(C)=C/[C@@H]1Cc2nc(cs2)[C@@H](C)C[C@@H](N)CC(=O)O[C@@H](C)C/C(C)=C/C=C\C(=O)O1)=C\CN(C)C result_value=420

Now turn to the next compound.
Entry `CC(/C=C/C(C)=C/[C@@H]1Cc2nc(cs2)CCCCC(=O)O[C@@H](C)C/C(C)=C/C=C\C(=O)O1)=C\CN(C)C` has what IC50?
900

* * *

Test Description: Binding affinity to eIF4A1/2 in rabbit reticulocyte lysate assessed as inhibition of cap-dependent translation after 1.5 hrs by dual luciferase reporter gene assay
Design: species or system Oryctolagus cuniculus
Readout Kind: IC50

line_notation=CC(/C=C/C(C)=C/[C@@H]1Cc2nc(cs2)CCCCC(=O)O[C@@H](C)C/C(C)=C/C=C\C(=O)O1)=C\CN1CCOCC1 result_value="72.2 nM"

Entry `CC(/C=C/C=C/CO)=C\[C@@H]1Cc2nc(cs2)CCCCC(=O)O[C@@H](C)C/C(C)=C/C=C\C(=O)O1` has what IC50?
> 500 nM

And the next one, `CC(/C=C/C(C)=C/[C@@H]1Cc2nc(cs2)CCCCC(=O)O[C@@H](C)C/C(C)=C/C=C/C(=O)O1)=C\CN(C)C` ?
> 500 nM

And the next one, `CC(/C=C/C(C)=C/[C@@H]1Cc2nc(cs2)CCCCC(=O)O[C@@H](C)C/C(C)=C/C=C\C(=O)O1)=C\CN1CCCC1` ?
54.8 nM

And the next one, `CC(/C=C/C(C)=C/[C@@H]1Cc2nc(cs2)CCCCC(=O)O[C@@H](C)C/C(C)=C/C=C\C(=O)O1)=C\CN(C)C` ?
21.5 nM

* * *

System: Jurkat
Test Description: Immunosuppressive activity in human Jurkat T cells assessed as inhibition of IL-2 transcription
Type: functional, cell-based
Readout Kind: IC50 (nM)
A number alone suffices; assume nM.

Sample records with IC50:
line_notation=CC(/C=C/C(C)=C/[C@@H]1Cc2nc(cs2)[C@@H](C)C[C@@H](NC(=O)c2ccccc2)CC(=O)O[C@@H](C)C/C(C)=C/C=C\C(=O)O1)=C\CN(C)C study_system=Jurkat result_value=15
line_notation=CC(/C=C/C(C)=C/[C@@H]1Cc2nc(cs2)[C@@H](C)C[C@@H](NC(=O)C(F)(F)F)CC(=O)O[C@@H](C)C/C(C)=C/C=C\C(=O)O1)=C\CN(C)C study_system=Jurkat result_value=300
line_notation=CC(/C=C/C(C)=C/[C@@H]1Cc2nc(cs2)[C@@H](C)C[C@@H](N)CC(=O)O[C@@H](C)C/C(C)=C/C=C\C(=O)O1)=C\CN(C)C study_system=Jurkat result_value=4
line_notation=CC(/C=C/C(C)=C/[C@@H]1Cc2nc(cs2)CCCCC(=O)O[C@@H](C)C/C(C)=C/C=C\C(=O)O1)=C\CN(C)C study_system=Jurkat result_value=0.81
line_notation=CC(/C=C/CCCN(C)C)=C\[C@@H]1Cc2nc(cs2)[C@@H](C)C[C@@H](NC(=O)OC(C)(C)C)CC(=O)O[C@@H](C)C/C(C)=C/C=C\C(=O)O1 study_system=Jurkat result_value=330

Now turn to the next molecule.
Entry `COCCC/C=C/C(C)=C/[C@@H]1Cc2nc(cs2)[C@@H](C)C[C@@H](NC(=O)OC(C)(C)C)CC(=O)O[C@@H](C)C/C(C)=C/C#CC(=O)O1` has what IC50?
55

* * *

Consider the following compounds and their measured selectivity ratio readings.
Test Description: Selectivity ratio of IC50 for MEF to IC50 for human HeLa cells
Format: cell-based
Assay Conditions: mouse (MEF) and human (HeLa cells), read-out: Ratio IC50
Could you respond with only the numeric value?

Sample records with selectivity ratio:
line_notation=CC(/C=C/C(C)=C/[C@@H]1Cc2nc(cs2)CCCCC(=O)O[C@@H](C)C/C(C)=C/C=C\C(=O)O1)=C\CN(C)C result_value=5
line_notation=CC(/C=C/C(C)=C/[C@@H]1Cc2nc(cs2)CCCCC(=O)O[C@@H](C)C/C(C)=C/C=C\C(=O)O1)=C\CN1CCOCC1 result_value=5

Entry `CC(/C=C/C(C)=C/[C@@H]1Cc2nc(cs2)CCCCC(=O)O[C@@H](C)C/C(C)=C/C=C\C(=O)O1)=C\CN1CCCC1` has what selectivity ratio?
4

* * *

System: Jurkat
Test Description: Immunosuppressive activity in human Jurkat T cells assessed as inhibition of IL-2 transcription
Assay type: functional, cell-based
Consider the following compounds and their measured IC50 readings.

Form: Entry = `CC(/C=C/CCCO)=C\[C@@H]1Cc2nc(cs2)[C@@H](C)C[C@@H](NC(=O)OC(C)(C)C)CC(=O)O[C@@H](C)C/C(C)=C/C=C\C(=O)O1` | System = Jurkat | IC50 = ____
> 1000 nM

And the next one, `COCCC/C=C/C(C)=C/[C@@H]1Cc2nc(cs2)[C@@H](C)C[C@@H](NC(=O)OC(C)(C)C)CC(=O)O[C@@H](C)C/C(C)=C/C=C\C(=O)O1` ?
> 1000 nM

And the next one, `CC(/C=C/CCCO)=C\[C@@H]1Cc2nc(cs2)[C@@H](C)C[C@@H](NC(=O)OC(C)(C)C)CC(=O)O[C@@H](C)C/C(C)=C/C#CC(=O)O1` ?
340 nM

* * *

Test Description: Dissociation constant, pKa of the compound
Type: physicochemical
Readout Kind: pKa

line_notation=CC(/C=C/C(C)=C/[C@@H]1Cc2nc(cs2)CCCCC(=O)O[C@@H](C)C/C(C)=C/C=C\C(=O)O1)=C\CN1CCCC1 result_value=11

Entry `CC(/C=C/C(C)=C/[C@@H]1Cc2nc(cs2)CCCCC(=O)O[C@@H](C)C/C(C)=C/C=C\C(=O)O1)=C\CN1CCOCC1` has what pKa?
8.36

And the next one, `CC(/C=C/C(C)=C/[C@@H]1Cc2nc(cs2)CCCCC(=O)O[C@@H](C)C/C(C)=C/C=C\C(=O)O1)=C\CN(C)C` ?
11

* * *

System: HaCaT
Test Description: Antiproliferative activity against human HaCaT cells assessed as DNA synthesis level after 24 hrs by thymidine incorporation assay
Type: functional, cell-based
Readout Kind: IC50

line_notation=CC(/C=C/CCCO)=C\[C@@H]1Cc2nc(cs2)[C@@H](C)C[C@@H](NC(=O)OC(C)(C)C)CC(=O)O[C@@H](C)C/C(C)=C/C#CC(=O)O1 result_value="> 100 nM"
line_notation=CC(/C=C/C(C)=C/[C@@H]1Cc2nc(cs2)[C@@H](C)C[C@@H](NC(=O)C(F)(F)F)CC(=O)O[C@@H](C)C/C(C)=C/C=C\C(=O)O1)=C\CN(C)C result_value="> 100 nM"

Now turn to the next molecule.
Entry `COCCC/C=C/C(C)=C/[C@@H]1Cc2nc(cs2)[C@@H](C)C[C@@H](NC(=O)OC(C)(C)C)CC(=O)O[C@@H](C)C/C(C)=C/C#CC(=O)O1` has what IC50?
> 100 nM

* * *

Study System: DNA polymerase alpha catalytic subunit (Homo sapiens)
Sequence (P09884 whole entry): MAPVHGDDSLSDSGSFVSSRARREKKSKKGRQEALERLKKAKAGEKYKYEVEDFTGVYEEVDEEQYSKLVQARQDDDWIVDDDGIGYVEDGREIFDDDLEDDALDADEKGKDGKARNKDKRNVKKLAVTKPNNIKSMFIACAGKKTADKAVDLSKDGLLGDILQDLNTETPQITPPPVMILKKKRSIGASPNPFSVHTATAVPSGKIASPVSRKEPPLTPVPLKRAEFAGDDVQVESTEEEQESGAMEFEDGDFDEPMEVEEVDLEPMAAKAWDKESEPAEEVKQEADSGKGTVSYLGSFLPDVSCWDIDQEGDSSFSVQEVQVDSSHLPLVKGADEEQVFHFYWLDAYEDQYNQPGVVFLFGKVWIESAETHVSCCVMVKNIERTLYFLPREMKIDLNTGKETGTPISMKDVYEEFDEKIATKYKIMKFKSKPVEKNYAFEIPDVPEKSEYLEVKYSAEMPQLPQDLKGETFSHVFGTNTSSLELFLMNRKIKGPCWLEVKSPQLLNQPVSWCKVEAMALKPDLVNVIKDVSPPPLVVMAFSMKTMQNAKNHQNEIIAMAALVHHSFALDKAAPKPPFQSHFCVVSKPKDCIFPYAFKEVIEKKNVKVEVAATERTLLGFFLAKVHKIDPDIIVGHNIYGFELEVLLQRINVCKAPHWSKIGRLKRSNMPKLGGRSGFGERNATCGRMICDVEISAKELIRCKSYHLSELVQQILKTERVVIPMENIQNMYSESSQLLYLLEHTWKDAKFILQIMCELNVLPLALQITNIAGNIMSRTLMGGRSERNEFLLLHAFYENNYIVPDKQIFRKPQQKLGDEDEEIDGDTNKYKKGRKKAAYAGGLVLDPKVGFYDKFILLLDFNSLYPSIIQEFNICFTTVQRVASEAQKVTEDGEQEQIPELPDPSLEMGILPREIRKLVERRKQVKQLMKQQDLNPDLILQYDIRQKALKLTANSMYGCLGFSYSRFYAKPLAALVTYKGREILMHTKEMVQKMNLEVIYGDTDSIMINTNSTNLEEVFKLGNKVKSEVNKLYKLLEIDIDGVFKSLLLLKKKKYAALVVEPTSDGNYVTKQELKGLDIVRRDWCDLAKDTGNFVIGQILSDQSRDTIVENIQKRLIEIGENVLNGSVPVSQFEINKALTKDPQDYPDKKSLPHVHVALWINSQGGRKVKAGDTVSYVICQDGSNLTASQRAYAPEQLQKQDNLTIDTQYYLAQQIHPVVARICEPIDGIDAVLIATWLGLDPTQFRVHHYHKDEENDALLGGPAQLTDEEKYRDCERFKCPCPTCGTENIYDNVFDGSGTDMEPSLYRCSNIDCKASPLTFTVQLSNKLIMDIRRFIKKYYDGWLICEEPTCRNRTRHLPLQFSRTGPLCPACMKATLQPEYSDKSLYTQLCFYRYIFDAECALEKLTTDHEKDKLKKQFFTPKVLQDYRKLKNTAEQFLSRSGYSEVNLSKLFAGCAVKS
Test Description: Inhibition of DNA polymerase-alpha (unknown origin) assessed as incorporation of Br(d)UTP by colorimetric analysis
Readout Kind: pIC50
Keep in mind that pIC50 stands for -log10 of concentration in molar terms.

Entry `CC(/C=C/C(C)=C/[C@@H]1Cc2nc(cs2)CCCCC(=O)O[C@@H](C)C/C(C)=C/C=C\C(=O)O1)=C\CN(C)C` has what pIC50?
5.52

* * *

Test Description: Selectivity ratio of IC50 for MEF to IC50 for human SK-MEL-2 cells
Format: cell-based
Assay Conditions: mouse (MEF) and human (SK-MEL-2 cells), MEF and SK-MEL-2 cells; read-out: Ratio IC50
Consider the following compounds and their measured selectivity ratio readings.
Could you respond with only the numeric value?

Sample records with selectivity ratio:
line_notation=CC(/C=C/C(C)=C/[C@@H]1Cc2nc(cs2)CCCCC(=O)O[C@@H](C)C/C(C)=C/C=C\C(=O)O1)=C\CN(C)C readout_kind="selectivity ratio" result_value=5
line_notation=CC(/C=C/C(C)=C/[C@@H]1Cc2nc(cs2)CCCCC(=O)O[C@@H](C)C/C(C)=C/C=C\C(=O)O1)=C\CN1CCOCC1 readout_kind="selectivity ratio" result_value=5

Entry `CC(/C=C/C(C)=C/[C@@H]1Cc2nc(cs2)CCCCC(=O)O[C@@H](C)C/C(C)=C/C=C\C(=O)O1)=C\CN1CCCC1` has what selectivity ratio?
4

Values were extracted from ChEMBL document CHEMBL3124904.
